- test.name: Dynamic solubility in different media (HPLC)
- Assay type: physicochemical
- measurement.conditions: fed state simulated intestinal fluid (FeSSIF), 37 °C, pH 5, fessif, thermodynamic from solid, FeSSIF
measured.quantity: solubility at 24 h (µg/mL)

In [3]: df
Out[3]:
                                   compound  measurement_unit  value_observed
0  CN(C(=O)c1ccc2nc(N)c3cncn3c2c1)[C@@H]1COc2cc(C(F)(F)F)ccc21 [Maleate crystalline form A]             µg/mL             258

----------
- test.name: Dynamic solubility in different media (HPLC)
- Assay type: physicochemical
- measurement.conditions: simulated gastric fluid (SGF), 37 °C, pH 1.2, simulated gastric fluid, thermodynamic from solid, SGF
measured.quantity: solubility at 24 h (µg/mL)

                                   compound   measured_quantity  value_observed
0  CN(C(=O)c1ccc2nc(N)c3cncn3c2c1)[C@@H]1COc2cc(C(F)(F)F)ccc21 [Maleate crystalline form A]  solubility at 24 h             443
